Biological target: T1, His-tagged PCSK9Δhelix (human, UniProt Q8NBP7 31-152; Q8NBP7 168-692)
T1 construct: Construct M1-Q692 with engineered TEV site, cut by TEV protease; new N-terminus of the catalytic domain is S-A168; also called His-PCSK9Δhelix
T1 sequence (Q8NBP7 31-152, stated change not applied, chain 1 of 2): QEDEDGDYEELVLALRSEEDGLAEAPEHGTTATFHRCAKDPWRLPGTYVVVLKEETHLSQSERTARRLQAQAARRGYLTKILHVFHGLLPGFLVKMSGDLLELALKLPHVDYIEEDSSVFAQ
T1 sequence (Q8NBP7 other isoform, or with tags, fused parts or gaps mutant, chain 2 of 2): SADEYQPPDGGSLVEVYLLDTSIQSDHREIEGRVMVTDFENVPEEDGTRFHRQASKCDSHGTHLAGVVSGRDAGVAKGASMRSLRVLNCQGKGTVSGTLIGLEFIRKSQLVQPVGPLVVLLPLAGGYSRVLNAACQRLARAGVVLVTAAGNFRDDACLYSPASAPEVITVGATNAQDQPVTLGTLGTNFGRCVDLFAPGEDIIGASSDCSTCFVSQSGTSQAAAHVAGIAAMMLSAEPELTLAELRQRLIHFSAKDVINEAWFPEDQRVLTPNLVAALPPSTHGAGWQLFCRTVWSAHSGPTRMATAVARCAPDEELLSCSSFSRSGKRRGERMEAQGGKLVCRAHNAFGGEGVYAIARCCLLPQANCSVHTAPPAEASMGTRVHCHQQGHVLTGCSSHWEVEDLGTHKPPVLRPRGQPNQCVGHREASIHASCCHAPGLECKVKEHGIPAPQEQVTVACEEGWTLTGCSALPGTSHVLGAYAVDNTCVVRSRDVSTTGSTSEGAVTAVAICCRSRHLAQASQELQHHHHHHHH
Test: TR-FRET competition; His-PCSK9Δhelix, competitor Ab20
Square brackets hold non-standard residues; d marks the D form. Ends that are not written are not given here. * marks the point of attachment. hArg = N=C(N)NCCCC[C@H](N)C(=O)O; Pentanoyl = CCCCC(=O)*
Answer each item with its documented log10 IC50.
Form field - Quantity: IC50; Unit: µM; Scale: log10

WNLVRIGLLR (also: further groups not given here, Structure printed only as a drawing) [Compound 150] = 0.91
{n‑PrC(O)}-WNLVRIGLLR-NH2 [Compound 123] = 1.26
WNLVRIGLLR (also: further groups not given here, Structure printed only as a drawing) [Compound 145] = 0.34
Ac-MDSFPGWNLVRIGLLR-NH2 [Compound 153] = 1.70
WNLV[hArg]IGLLR (also: further groups not given here, Structure printed only as a drawing) [Compound 216] = -0.52
Ac-DLMPWNLKRIGLLR-NH2 [Compound 158] = 1.08
Pentanoyl-WNLVRIGLER-NH2 (SMILES CCCCC(=O)N[C@@H](Cc1c[nH]c2ccccc12)C(=O)N[C@@H](CC(N)=O)C(=O)N[C@@H](CC(C)C)C(=O)N[C@H](C(=O)N[C@@H](CCCNC(=N)N)C(=O)N[C@H](C(=O)NCC(=O)N[C@@H](CC(C)C)C(=O)N[C@@H](CCC(=O)O)C(=O)N[C@@H](CCCNC(=N)N)C(N)=O)[C@@H](C)CC)C(C)C) [Compound 177] = 1.54
WNLVRIGLLR (also: further groups not given here, Structure printed only as a drawing) [Compound 140] = 1.41

For each of the binders below, state log10 IC50.
1. WNLV[hArg]IGLLR (also: further groups not given here, Structure printed only as a drawing) [Compound 218]
2. Ac-ESYPGWNLVRIGLLR-NH2 [Compound 156]
3. WNLVRIGLLR (also: further groups not given here, Structure printed only as a drawing) [Compound 144]
4. WNLV[hArg]IGLLR (also: end groups and other groups only in drawing, Structure printed only as a drawing) [Compound 198]
5. WNLV[hArg]IGLLR (also: further groups not given here, Structure printed only as a drawing) [Compound 209]

-- reply
[-0.59, 1.70, 0.60, -0.60, -0.35]
